Target: T1, IL10Rα/IL2Rγ receptor (human, UniProt Q13651 22-578; P31785 23-369)
T1 sequence (looked up) 1: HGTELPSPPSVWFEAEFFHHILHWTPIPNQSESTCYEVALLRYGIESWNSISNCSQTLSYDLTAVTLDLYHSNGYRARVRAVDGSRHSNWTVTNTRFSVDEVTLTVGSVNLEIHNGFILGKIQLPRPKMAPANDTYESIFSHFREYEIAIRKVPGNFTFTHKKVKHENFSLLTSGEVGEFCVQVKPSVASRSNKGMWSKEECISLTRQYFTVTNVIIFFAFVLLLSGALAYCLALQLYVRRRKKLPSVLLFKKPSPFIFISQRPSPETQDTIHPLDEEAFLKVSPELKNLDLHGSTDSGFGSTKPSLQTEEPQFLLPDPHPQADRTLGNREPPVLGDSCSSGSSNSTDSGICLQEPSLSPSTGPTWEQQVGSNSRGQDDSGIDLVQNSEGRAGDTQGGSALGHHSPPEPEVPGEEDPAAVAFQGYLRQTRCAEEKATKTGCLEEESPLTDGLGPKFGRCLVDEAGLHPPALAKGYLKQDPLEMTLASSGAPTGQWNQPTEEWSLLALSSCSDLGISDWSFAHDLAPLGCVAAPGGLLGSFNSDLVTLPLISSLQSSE
T1 sequence (looked up) 2: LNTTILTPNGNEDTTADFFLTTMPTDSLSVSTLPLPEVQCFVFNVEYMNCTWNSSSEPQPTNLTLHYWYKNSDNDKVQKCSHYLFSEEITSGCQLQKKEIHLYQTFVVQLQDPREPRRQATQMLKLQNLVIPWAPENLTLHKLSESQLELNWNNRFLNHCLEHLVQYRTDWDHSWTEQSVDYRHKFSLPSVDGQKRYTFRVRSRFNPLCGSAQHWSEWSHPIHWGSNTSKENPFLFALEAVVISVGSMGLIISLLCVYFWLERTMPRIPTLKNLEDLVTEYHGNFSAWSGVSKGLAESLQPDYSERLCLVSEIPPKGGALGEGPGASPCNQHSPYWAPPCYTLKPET
Experiment: cell-based or functional assay
Reported metric: pSTAT3 MFI, CD8 T cells, 0.01 nM (unstimulated 1446) (MFI)

Binder	Value
DR471(DR241-DR231) (bispecific antibody) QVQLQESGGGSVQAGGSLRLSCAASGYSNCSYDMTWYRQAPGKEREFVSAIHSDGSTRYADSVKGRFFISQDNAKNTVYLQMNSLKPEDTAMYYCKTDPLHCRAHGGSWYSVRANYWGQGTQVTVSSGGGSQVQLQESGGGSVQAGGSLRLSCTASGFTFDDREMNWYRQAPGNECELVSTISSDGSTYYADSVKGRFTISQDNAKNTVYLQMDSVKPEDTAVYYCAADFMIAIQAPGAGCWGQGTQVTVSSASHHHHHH	1420
DR441(DR236-DR231) (bispecific antibody) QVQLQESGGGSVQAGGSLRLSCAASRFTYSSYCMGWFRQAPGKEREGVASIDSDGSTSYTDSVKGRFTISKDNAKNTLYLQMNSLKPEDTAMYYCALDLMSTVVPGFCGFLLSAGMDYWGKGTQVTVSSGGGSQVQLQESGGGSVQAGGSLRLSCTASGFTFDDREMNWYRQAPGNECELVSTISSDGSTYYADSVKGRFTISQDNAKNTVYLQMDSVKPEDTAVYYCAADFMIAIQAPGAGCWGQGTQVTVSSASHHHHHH	1430
DR465(DR240-DR231) (bispecific antibody) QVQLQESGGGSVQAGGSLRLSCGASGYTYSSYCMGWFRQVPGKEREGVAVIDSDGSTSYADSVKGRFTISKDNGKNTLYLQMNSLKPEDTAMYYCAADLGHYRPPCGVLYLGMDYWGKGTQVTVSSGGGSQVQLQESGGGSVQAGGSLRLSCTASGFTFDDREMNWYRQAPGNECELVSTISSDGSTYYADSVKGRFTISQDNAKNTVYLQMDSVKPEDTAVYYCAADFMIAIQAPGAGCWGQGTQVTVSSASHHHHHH	1380
